- ASSAY_TARGET: T1, corticotropin-releasing hormone (CRH) peptide (human and mouse (same sequence), not fully specified)
- T1 peptide: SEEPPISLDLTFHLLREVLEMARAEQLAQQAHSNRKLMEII
- ASSAY_PROCEDURE: cell-based or functional assay
ENDPOINT: hCRHR1 Luciferase Reporter Assay IC50 (nM)

| BINDER | READOUT_VALUE |
| --- | --- |
| PR302341-52 (antibody, human IgG1, kappa, V domains shown) VH: QVQLVQSGAEVKKPGASVKVSCKASGYTFTDYFMKWVRQAPGQGLEWMGVINPNNADIFYNQKFKGRVTMTVDKSTSTAYMELSSLRSEDTAVYYCARGTDRALFAYWGQGTLVTVSS VL: DVVMTQTPLSSPVTLGQPASISCRSGQSIVHSSGNTYLEWYQQRPGQPPRLLIYKVSNRFSGVPDRFSGSGAGTDFTLKISRVEAEDLGVYYCFQGSHIPWTFGGGTKVEIKR | 0.946 |
| PR302341-60 (antibody, human IgG1, kappa, V domains shown) VH: QVQLVQSGAEVKKPGASVKVSCKASGYTFTDYFMKWVRQAPGQRLEWMGVINPNQGDIFYNQKFKGRVTITRDTSASTAYMELSSLRSEDTAVYYCARGTDRALFAYWGQGTLVTVSS VL: DVVMTQSPLSLPVTLGQPASISCRSGQSIVHSDANTYLEWYQQRPGQSPRLLIYKVSNRFSGVPDRFSGSGSGTDFTLKISRVEAEDLGVYYCFQGSHIPWTFGGGTKVEIKR | 0.878 |
| PR302341-66 (antibody, human IgG1, kappa, V domains shown) VH: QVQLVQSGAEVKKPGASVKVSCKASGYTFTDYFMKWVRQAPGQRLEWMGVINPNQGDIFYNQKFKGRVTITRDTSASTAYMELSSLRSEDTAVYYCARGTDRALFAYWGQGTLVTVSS VL: DVVMTQSPLSLPVTLGQPASISCRSGQSIVHSSGNTYLEWYQQRPGQSPRLLIYKVSNRFSGVPDRFSGSGSGTDFTLKISRVEAEDLGVYYCFQGSHIPWTFGGGTKVEIKR | 4.13 |

These data points were gathered from patent US20260042834A1.
